Measured B1R antagonism, human [10 μM] % inhibition, listed per entry for reference.
- measured-target: human B1R receptor (bradykinin 1 receptor) (Homo sapiens, UniProt P46663)
- Construct: host or cells: CHO K1 cells (hB1R cells)
- test-method-notes: FLIPR Ca2+ assay (Fluo-4) on CHO K1 cells stably transfected with the human B1R gene; % activation and % inhibition at 10 μM
- Assay type: cell-based
- particulars: test substance 10 μM; CHO K1 hB1R cells; Ca2+ inflow after 0.5 nM Lys-Des-Arg9-bradykinin
Answer format: numeric, % implied, no suffix.

>>> numeric_value("O=C(COCC1Cc2ccccc2CN1S(=O)(=O)c1ccc(Cl)cc1Cl)N1CCC(O)(c2cccnc2)CC1 (stereo not shown) [Example 92]")
101.02

Query block: Entry Cc1cc(S(=O)(=O)N2CCCCC2CCC(=O)N2CCC(O)(c3cccnc3)CC2)c(C)cc1Cl (stereo not shown) [Example 122] has what B1R antagonism, human [10 μM] % inhibition?
Result block: 98.39

Query block: Entry COc1cc(C)c(S(=O)(=O)N2CCCC2COCC(=O)N2CCC(O)(c3ccc(Cl)c(C(F)(F)F)c3)CC2)c(C)c1 (stereo not shown) [Example 213] has what B1R antagonism, human [10 μM] % inhibition?
Result block: 103.55

Query block: Entry COc1cc(C)c(S(=O)(=O)N(C)CCOCC(=O)N2CCC(O)(c3ccccn3)CC2)c(C)c1 [Example 4] has what B1R antagonism, human [10 μM] % inhibition?
Result block: 101.69

----------
- measured-target: human B1R receptor (bradykinin 1 receptor) (Homo sapiens, UniProt P46663)
- Construct: host or cells: CHO K1 cells (hB1R cells)
- Sequence (P46663 1-353): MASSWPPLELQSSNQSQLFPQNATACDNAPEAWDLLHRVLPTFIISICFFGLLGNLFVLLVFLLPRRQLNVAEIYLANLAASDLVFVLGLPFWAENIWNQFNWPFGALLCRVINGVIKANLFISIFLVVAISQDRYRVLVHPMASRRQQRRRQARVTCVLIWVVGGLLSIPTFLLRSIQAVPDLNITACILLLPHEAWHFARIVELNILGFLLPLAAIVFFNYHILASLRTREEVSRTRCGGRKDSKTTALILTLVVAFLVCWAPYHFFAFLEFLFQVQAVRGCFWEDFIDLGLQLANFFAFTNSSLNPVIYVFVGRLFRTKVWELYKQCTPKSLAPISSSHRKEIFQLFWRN
- test-method-notes: FLIPR Ca2+ assay (Fluo-4) on CHO K1 cells stably transfected with the human B1R gene; % activation and % inhibition at 10 μM
- Type: cell-based
- particulars: CHO-K1, test substance 10 μM; CHO K1 hB1R cells; Ca2+ inflow after 0.5 nM Lys-Des-Arg9-bradykinin; read-out: B1R antagonism, human [10 μM] % inhibition
endpoint-label: inhibition at 10 µM

A selection of reference data follows.
>>> result("O=C(COCC1CCN(S(=O)(=O)c2c(Cl)cc(Cl)cc2Cl)C1)N1CCC(O)(Cc2ccccc2)CC1 (stereo not shown)")
"40%"
>>> result("O=C(COCC1CCc2ccccc2N1S(=O)(=O)c1ccc(Cl)c(Cl)c1)N1CCC(O)(c2ccccn2)CC1 (stereo not shown)")
"70.7%"
>>> result("CN(CCOCC(=O)N1CCC(O)(c2cccc(C(F)(F)F)c2)CC1)S(=O)(=O)c1cc(Cl)sc1Cl")
"73.6%"

Attention now shifts to the item below.
Query block: Entry O=C(COCC1CCCCN1S(=O)(=O)c1c(Cl)cc(C(F)(F)F)cc1Cl)N1CCC(O)(c2ccc(Cl)c(C(F)(F)F)c2)CC1 (stereo not shown) has what inhibition at 10 µM?
Result block: 2.63%
